Each entry below lists one item and its recorded Cell viability (% viable cells, MTS) value.
- Test system: Neuronal cortical cells
- Experiment summary: Assay for test compound cytoxicity, MTS (Assay 3(d))
- Assay type: cell-based, mouse
- Assay conditions: 0.1 um, 4 days, MTS
- Method: Media was then replaced with Neurobasal media (Invitrogen Life Technologies) and B27 supplements (Invitrogen Life Technologies). Cultures were maintained at 37° C. in 5% CO2. […] Cell viability is determined using the MTS assay. […] 200 microliter aliquots are measured with a spectrophotometer at 560 nm. […] On completion of the assay, 1/10 volume MTS was added per well of plate (ie 25 ul/250 ul). The plates were incubated at 37 C for 2 hrs, and then absorbance was read at 560 nm.
Measurement type: Cell viability (% viable cells, MTS)

Chemical structure: Oc1cccc2cccnc12
Obs value: 90%
--
Chemical structure: Nc1ccc2cccc(O)c2n1
Obs value: 89%

###

Each entry below lists one item and its recorded Test Compound Cytoxicity 0.1 um value.
- Tested on: Neuronal cortical cells
- Experiment summary: Assay for test compound cytoxicity, MTS (Assay 3(d))
- Format: cell-based, mouse
- Assay conditions: BL6J×129sv, mouse, 4 days, 0.1 uM
- Procedure: Media was then replaced with Neurobasal media (Invitrogen Life Technologies) and B27 supplements (Invitrogen Life Technologies). Cultures were maintained at 37° C. in 5% CO2. […] Cell viability is determined using the MTS assay. […] 200 microliter aliquots are measured with a spectrophotometer at 560 nm. […] On completion of the assay, 1/10 volume MTS was added per well of plate (ie 25 ul/250 ul). The plates were incubated at 37 C for 2 hrs, and then absorbance was read at 560 nm.
Measurement type: Test Compound Cytoxicity 0.1 um (%)

Compound: Oc1c(-c2ccccc2C(F)(F)F)cc(Cl)c2cccnc12 [compound 864]
Measurement type: Test Compound Cytoxicity 0.1 um
Obs value: 100

Compound: Oc1c(Cl)cc(Cl)c2cccnc12 [compound 45]
Measurement type: Test Compound Cytoxicity 0.1 um
Obs value: 100

Compound: Cc1ccccc1-c1cc(Cl)c2cccnc2c1O [compound 854]
Measurement type: Test Compound Cytoxicity 0.1 um
Obs value: 94

Compound: CN(CCc1ccccn1)Cc1ccc2cccc(O)c2n1 [compound 990]
Measurement type: Test Compound Cytoxicity 0.1 um
Obs value: 95

Compound: Oc1ccccc1-c1cc(Cl)c2cccnc2c1O [compound 947]
Measurement type: Test Compound Cytoxicity 0.1 um
Obs value: 100

Compound: Cc1cc(C)c2cccnc2c1O [compound 59]
Measurement type: Test Compound Cytoxicity 0.1 um
Obs value: 89

Compound: Oc1c(Br)cc(-c2cc(F)cc(F)c2)c2cccnc12 [compound 853]
Measurement type: Test Compound Cytoxicity 0.1 um
Obs value: 93

Compound: O=C(NCCc1c[nH]cn1)c1ccc2cccc(O)c2n1 [compound 948]
Measurement type: Test Compound Cytoxicity 0.1 um
Obs value: 100

Compound: Cc1cnc(NC(=O)c2ccc3cccc(O)c3n2)s1 [compound 953]
Measurement type: Test Compound Cytoxicity 0.1 um
Obs value: 101

Compound: O=C(NCCc1ccccn1)c1ccc2cccc(O)c2n1 [compound 950]
Measurement type: Test Compound Cytoxicity 0.1 um
Obs value: 95

Compound: COc1cccc(-c2cc(Cl)c3cccnc3c2O)c1 [compound 810]
Measurement type: Test Compound Cytoxicity 0.1 um
Obs value: 100

Compound: O=C(Nc1nccs1)c1ccc2cccc(O)c2n1 [compound 952]
Measurement type: Test Compound Cytoxicity 0.1 um
Obs value: 98

Compound: CN(c1ccc2cccc(O)c2n1)c1ccc2cccc(O)c2n1 [compound 56]
Measurement type: Test Compound Cytoxicity 0.1 um
Obs value: 108

Compound: NCc1ccc2cccc(O)c2n1 [compound 968]
Measurement type: Test Compound Cytoxicity 0.1 um
Obs value: 103

Compound: Oc1c(I)cc(Cl)c2cccnc12 [compound 1, clioquinol, reference compound]
Measurement type: Test Compound Cytoxicity 0.1 um
Obs value: 78

Compound: O=C(CNC(=O)c1cc(O)c2cccc(O)c2n1)NCCc1c[nH]cn1 [compound 987]
Measurement type: Test Compound Cytoxicity 0.1 um
Obs value: 92

Compound: O/N=C/c1ccc2cccc(O)c2n1 [compound 969]
Measurement type: Test Compound Cytoxicity 0.1 um
Obs value: 91

Provenance of the data: patent US9302993B2
